target: HLA-A*3301 (human); details: remark: other sources report otherwise
MEASURE_NAME: IC50 (nM)

In [3]: df
Out[3]:
                                     binder  measure_name  quantitative_readout
0  LLPIFFCLWVY (modifications not checked) [peptide 26.0549]          IC50                   644
